Data provenance: PubChem BioAssay AID1845209

Test system: NCI-H211 tumor spheroids, viability percent test/control
Assay: Anticancer human tumor NCI-H211 cell line growth inhibition;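 also: spheroids exposed to agents for seven days before readout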
Conditions: second compound 10 µM; first compound 1 µM; stronger effect = lower value; spheroids with HUVEC and MSC
With a cut-off of 70%, any viability, T/C strictly below it is called 1; any viability, T/C meeting it or above is called 0.

Solved entries (count: 3):
CC1COCCN1c1cc(-c2ccnn2C)c2ccnc(-c3ccn[nH]3)c2n1 (stereo unspecified) + Cn1nnc2c(C(N)=O)ncn2c1=O ... 1
COc1cc(C)[nH]c(=O)c1CN1CCc2c(Cl)cc(C(OC)C3COC3)c(Cl)c2C1=O (stereo unspecified) + Cn1nnc2c(C(N)=O)ncn2c1=O ... 0
[2H]c1nc(C)nc([2H])c1-c1cc(NC[C@@H](C)c2cccc3c(C(=O)NC)ccnc23)ncn1 + Cn1nnc2c(C(N)=O)ncn2c1=O ... 0

Could you now look at the following compound, please?
Request: Strictly below 70% in viability, T/C? CC(C)n1c(=O)n(C)c2cnc3cc(F)c(-c4ccc(OCCCN5CCCCC5)nc4)cc3c21 + Cn1nnc2c(C(N)=O)ncn2c1=O
Result: 1

###

Tested on: NCI-H211 tumor spheroids, viability percent test/control
Test: Anticancer human tumor NCI-H211 cell line growth inhibition;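 also: spheroids exposed to agents for seven days before readout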
Conditions: second compound 0.0949 µM; first compound 10 µM; stronger effect = lower value; spheroids with HUVEC and MSC
# viability, T/C annotations

Reference set, count: 2
COc1cc(C)[nH]c(=O)c1CN1CCc2c(Cl)cc(C(OC)C3COC3)c(Cl)c2C1=O (stereo not drawn) + CC[C@@]1(O)C(=O)OCc2c1cc1n(c2=O)Cc2cc3c(CN(C)C)c(O)ccc3nc2-1 ... 0.83%
CC1COCCN1c1cc(-c2ccnn2C)c2ccnc(-c3ccn[nH]3)c2n1 (stereo not drawn) + CC[C@@]1(O)C(=O)OCc2c1cc1n(c2=O)Cc2cc3c(CN(C)C)c(O)ccc3nc2-1 ... 1.17%

Request: What does the record list as viability, T/C for [2H]c1nc(C)nc([2H])c1-c1cc(NC[C@@H](C)c2cccc3c(C(=O)NC)ccnc23)ncn1 + CC[C@@]1(O)C(=O)OCc2c1cc1n(c2=O)Cc2cc3c(CN(C)C)c(O)ccc3nc2-1 ?
Result: 1.69%

###

Tested on: NCI-H211 tumor spheroids, viability percent test/control
Assay: Anticancer human tumor NCI-H211 cell line growth inhibition;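 also: spheroids exposed to agents for seven days before readout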
Conditions: second compound 0.03 µM; first compound 0.949 µM; stronger effect = lower value; spheroids with HUVEC and MSC
MEASUREMENT KIND: viability, T/C

Below are worked cases with known answers.
Cc1sc2c(c1C)C(c1ccc(Cl)cc1)=NC(CC(=O)Nc1ccc(O)cc1)c1nnc(C)n1-2 (centres undefined) + CC[C@@]1(O)C(=O)OCc2c1cc1n(c2=O)Cc2cc3c(CN(C)C)c(O)ccc3nc2-1 ... 0.57%
Cn1ncnc1[C@H]1c2n[nH]c(=O)c3cc(F)cc(c23)N[C@@H]1c1ccc(F)cc1 + CC[C@@]1(O)C(=O)OCc2c1cc1n(c2=O)Cc2cc3c(CN(C)C)c(O)ccc3nc2-1 ... 1.14%
O=C(c1cc(Cc2n[nH]c(=O)c3ccccc23)ccc1F)N1CCN(C(=O)C2CC2)CC1 + CC[C@@]1(O)C(=O)OCc2c1cc1n(c2=O)Cc2cc3c(CN(C)C)c(O)ccc3nc2-1 ... 1.2%

Request: For the molecule CNCc1ccc(-c2cc(-c3nc(-c4ccc(S(=O)(=O)C(C)C)cc4)cnc3N)on2)cc1 + CC[C@@]1(O)C(=O)OCc2c1cc1n(c2=O)Cc2cc3c(CN(C)C)c(O)ccc3nc2-1 , what viability, T/C is on record?
Result: 0.14%

###

Test system: NCI-H211 tumor spheroids, viability percent test/control
Assay: Anticancer human tumor NCI-H211 cell line growth inhibition; active means viability on the fitted dose curve at most 10% of control; inactive means the rest;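 also: spheroids exposed to agents for seven days before readout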
Details: second compound 3.16 µM; first compound 0.0949 µM; spheroids with HUVEC and MSC
Method: Multicellular complex tumor spheroid response to DNA repair inhibitors in combination with DNA-damaging drugs This study explores the anticancer activities of DNA-damaging drugs and inhibitors of DNA damage repair, both as single agents and in combinations. […] Twenty-six patient-derived or established malignant cell lines were evaluated representing sarcoma, melanoma, small cell lung cancer (SCLC), non-small cell lung cancer (NSCLC), as well as bladder, ovarian and pancreatic cancers. […]
Return exactly one item of active, inactive

Cc1sc2c(c1C)C(c1ccc(Cl)cc1)=NC(CC(=O)Nc1ccc(O)cc1)c1nnc(C)n1-2 (centres undefined) + Cn1nnc2c(C(N)=O)ncn2c1=O ... active
Cn1ncnc1[C@H]1c2n[nH]c(=O)c3cc(F)cc(c23)N[C@@H]1c1ccc(F)cc1 + Cn1nnc2c(C(N)=O)ncn2c1=O ... active
CNCc1ccc(-c2cc(-c3nc(-c4ccc(S(=O)(=O)C(C)C)cc4)cnc3N)on2)cc1 + Cn1nnc2c(C(N)=O)ncn2c1=O ... active

// next entry
Request: For this compound, state the assay outcome: O=C(c1cc(Cc2n[nH]c(=O)c3ccccc23)ccc1F)N1CCN(C(=O)C2CC2)CC1 + Cn1nnc2c(C(N)=O)ncn2c1=O
Result: inactive

###

System: NCI-H211 tumor spheroids, viability percent test/control
Test: Anticancer human tumor NCI-H211 cell line growth inhibition; active = viability on the fitted dose curve at most 10% of control; inactive = the rest;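 also: spheroids exposed to agents for seven days before readout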
Details: second compound 0.003 µM; first compound 0.316 µM; spheroids with HUVEC and MSC
Pick one and only one: active, inactive

Worked examples, 2 compounds total:
COc1cc(C)[nH]c(=O)c1CN1CCc2c(Cl)cc(C(OC)C3COC3)c(Cl)c2C1=O (stereo not drawn) + COc1cc2c(cc1O)CCNC21CSC2c3c(OC(C)=O)c(C)c4c(c3C(COC1=O)N1C(O)C3Cc5cc(C)c(OC)c(O)c5C(C21)N3C)OCO4 ... active
COc1ccc([C@@H](O)c2cc(-c3ncnc4cc(N5CCOCC5)ccc34)c(F)cc2Cl)nn1 + CC[C@@]1(O)C(=O)OCc2c1cc1n(c2=O)Cc2cc3c(CN(C)C)c(O)ccc3nc2-1 ... inactive

Request: What call does the record list for CC(C)n1c(=O)n(C)c2cnc3cc(F)c(-c4ccc(OCCCN5CCCCC5)nc4)cc3c21 + COc1cc2c(cc1O)CCNC21CSC2c3c(OC(C)=O)c(C)c4c(c3C(COC1=O)N1C(O)C3Cc5cc(C)c(OC)c(O)c5C(C21)N3C)OCO4 ?
Result: active

###

This listing pairs compounds with measured viability, T/C.
System: NCI-H211 tumor spheroids, viability percent test/control
Test: Anticancer human tumor NCI-H211 cell line growth inhibition;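 also: spheroids exposed to agents for seven days before readout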
Conditions: second compound 0.003 µM; first compound 0.949 µM; stronger effect = lower value; spheroids with HUVEC and MSC
Response body: numeric value in %, unit text excluded.

The following compounds have reported results that may help.
Cc1sc2c(c1C)C(c1ccc(Cl)cc1)=NC(CC(=O)Nc1ccc(O)cc1)c1nnc(C)n1-2 (stereo not given) + CC[C@@]1(O)C(=O)OCc2c1cc1n(c2=O)Cc2cc3c(CN(C)C)c(O)ccc3nc2-1 ... 0.42
CNCc1ccc(-c2cc(-c3nc(-c4ccc(S(=O)(=O)C(C)C)cc4)cnc3N)on2)cc1 + COc1cc2c(cc1O)CCNC21CSC2c3c(OC(C)=O)c(C)c4c(c3C(COC1=O)N1C(O)C3Cc5cc(C)c(OC)c(O)c5C(C21)N3C)OCO4 ... 0.1
Cn1ncnc1[C@H]1c2n[nH]c(=O)c3cc(F)cc(c23)N[C@@H]1c1ccc(F)cc1 + COc1cc2c(cc1O)CCNC21CSC2c3c(OC(C)=O)c(C)c4c(c3C(COC1=O)N1C(O)C3Cc5cc(C)c(OC)c(O)c5C(C21)N3C)OCO4 ... 0.11

Request: Recall the recorded viability, T/C for Cc1sc2c(c1C)C(c1ccc(Cl)cc1)=NC(CC(=O)Nc1ccc(O)cc1)c1nnc(C)n1-2 (stereo not given) + COc1cc2c(cc1O)CCNC21CSC2c3c(OC(C)=O)c(C)c4c(c3C(COC1=O)N1C(O)C3Cc5cc(C)c(OC)c(O)c5C(C21)N3C)OCO4 with NCI-H211 tumor spheroids, viability percent test/control and state it.
Result: 0.1

Request: Same question, O=C(c1cc(Cc2n[nH]c(=O)c3ccccc23)ccc1F)N1CCN(C(=O)C2CC2)CC1 + CC[C@@]1(O)C(=O)OCc2c1cc1n(c2=O)Cc2cc3c(CN(C)C)c(O)ccc3nc2-1 this time
Result: 1.25

###

Each entry below carries its reported viability, T/C.
Test system: NCI-H211 tumor spheroids, viability percent test/control
Test: Anticancer human tumor NCI-H211 cell line growth inhibition;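 also: spheroids exposed to agents for seven days before readout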
Settings: second compound 100 µM; first compound 0.3 µM; stronger effect = lower value; spheroids with HUVEC and MSC
Return type: number; implicit unit %.

Guide cases for viability, T/C, answers given:
Cn1ncnc1[C@H]1c2n[nH]c(=O)c3cc(F)cc(c23)N[C@@H]1c1ccc(F)cc1 + Cn1nnc2c(C(N)=O)ncn2c1=O ... 3.21
CNCc1ccc(-c2cc(-c3nc(-c4ccc(S(=O)(=O)C(C)C)cc4)cnc3N)on2)cc1 + Cn1nnc2c(C(N)=O)ncn2c1=O ... 1.21
Cc1sc2c(c1C)C(c1ccc(Cl)cc1)=NC(CC(=O)Nc1ccc(O)cc1)c1nnc(C)n1-2 (centres undefined) + Cn1nnc2c(C(N)=O)ncn2c1=O ... 1.09

Shifting focus to the molecule that follows.
Request: Look up viability, T/C for this molecule: O=C(c1cc(Cc2n[nH]c(=O)c3ccccc23)ccc1F)N1CCN(C(=O)C2CC2)CC1 + Cn1nnc2c(C(N)=O)ncn2c1=O
Result: 9.41
